Data provenance: patent US20250235545A1

test system: sarcoma SJSA-1 tumor model; conditions: 15 mg/kg once a week for three weeks; Table 7
Where a SMILES comes first, the peptide text is derived from it. The star is where a group is joined. Belotecan = CC[C@@]1(O)C(=O)OCc2c1cc1n(c2=O)Cc2c-1nc1ccccc1c2CCN(C(C)C)*; X2 = CCCCN(CCc1c2c(nc3ccccc13)-c1cc3c(c(=O)n1C2)COC(=O)[C@]3(O)CC)*; X1 = CC[C@@]1(O)C(=O)OCc2c1cc1n(c2=O)Cc2c-1nc1ccccc1c2CCN(C1CCC1)*; X5 = CC[C@@]1(O)C(=O)OCc2c1cc1n(c2=O)Cc2c-1nc1ccccc1c2CCN(CC(C)C)*; Propanoyl(3-maleimido) = O=C1C=CC(=O)N1CCC(=O)*; PEG6 = NCCOCCOCCOCCOCCOCCOCCC(=O)O
Kindly supply the reported Mouse weight (%) values for the records listed here.

Before answering, review these 4 worked examples.
molecule	test-system	Mouse weight (%)
CC[C@@]1(O)C(=O)OCc2c1cc1n(c2=O)Cc2c-1nc1ccccc1c2CCN(C(=O)[C@H](CC(C)C)NC(=O)[C@H](CC(N)=O)NC(=O)[C@H](C)NC(=O)[C@H](C)NC(=O)CCOCCOCCOCCOCCOCCOCCNC(=O)CCN1C(=O)C=CC1=O)C(C)C [MI-6PEG-AANL-Belotecan] ({Propanoyl(3-maleimido)-PEG6}-AANL-Belotecan)	sarcoma SJSA-1 tumor model	+24%
CC[C@@]1(O)C(=O)OCc2c1cc1n(c2=O)Cc2c-1nc1ccccc1c2CCN(C(=O)[C@H](CC(C)C)NC(=O)[C@H](CC(N)=O)NC(=O)[C@H](C)NC(=O)[C@H](C)NC(=O)CCOCCOCCOCCOCCOCCOCCNC(=O)CCN1C(=O)C=CC1=O)C1CCC1 [MI-6PEG-AANL-D7] ({Propanoyl(3-maleimido)-PEG6}-AANL-X1)	sarcoma SJSA-1 tumor model	+12%
CC[C@@]1(O)C(=O)OCc2c1cc1n(c2=O)Cc2c-1nc1ccccc1c2CCN(C(=O)[C@H](CC(C)C)NC(=O)[C@H](Cc1ccccc1)NC(=O)CNC(=O)CNC(=O)CCOCCOCCOCCOCCOCCOCCNC(=O)CCN1C(=O)C=CC1=O)C(C)C [MI-6PEG-GGFL-Belotecan] ({Propanoyl(3-maleimido)-PEG6}-GGFL-Belotecan)	sarcoma SJSA-1 tumor model	+27%
CCCCN(CCc1c2c(nc3ccccc13)-c1cc3c(c(=O)n1C2)COC(=O)[C@]3(O)CC)C(=O)[C@H](CC(C)C)NC(=O)[C@H](CC(N)=O)NC(=O)[C@H](C)NC(=O)[C@H](C)NC(=O)CCOCCOCCOCCOCCOCCOCCNC(=O)CCN1C(=O)C=CC1=O [MI-6PEG-AANL-D4] ({Propanoyl(3-maleimido)-PEG6}-AANL-X2)	sarcoma SJSA-1 tumor model	+19%

Problem: Fill in: Mouse weight (%) of CC[C@@]1(O)C(=O)OCc2c1cc1n(c2=O)Cc2c-1nc1ccccc1c2CCN(CC(C)C)C(=O)[C@H](CC(C)C)NC(=O)[C@H](CC(N)=O)NC(=O)[C@H](C)NC(=O)[C@H](C)NC(=O)CCOCCOCCOCCOCCOCCOCCNC(=O)CCN1C(=O)C=CC1=O [MI-6PEG-AANL-D5] ({Propanoyl(3-maleimido)-PEG6}-AANL-X5) is ___
Result: +18%

---

Kindly supply the reported IC50 A549 (non-small cell lung cancer) values for the records listed here.
test system: A549 (non-small cell lung cancer); experiment: cells; type: cell-based; details: CCK8, 48 h; Table 1
Where a SMILES comes first, the peptide text is derived from it. The star is where a group is joined. X8 = CC[C@@]1(O)C(=O)OCc2c1cc1n(c2=O)Cc2c-1nc1ccccc1c2CCN(C1CCCC1)*; X3 = CC[C@@]1(O)C(=O)OCc2c1cc1n(c2=O)Cc2c-1nc1ccccc1c2CCN(C1CC1)*; X7 = CC[C@@]1(O)C(=O)OCc2c1cc1n(c2=O)Cc2c-1nc1ccccc1c2CCN(C)*; Propanoyl(3-maleimido) = O=C1C=CC(=O)N1CCC(=O)*; PEG6 = NCCOCCOCCOCCOCCOCCOCCC(=O)O
One number for each entry, in mg/L.

Before answering, review these 5 worked examples.
molecule	IC50 A549 (non-small cell lung cancer) [mg/L]
CC[C@@]1(O)C(=O)OCc2c1cc1n(c2=O)Cc2c-1nc1ccccc1c2CCN(C(=O)CNC(=O)[C@H](Cc1ccccc1)NC(=O)CNC(=O)CNC(=O)CCOCCOCCOCCOCCOCCOCCNC(=O)CCN1C(=O)C=CC1=O)C1CC1 [MI-6PEG-GGFG-D6] ({Propanoyl(3-maleimido)-PEG6}-GGFG-X3)	1.31
CC[C@@]1(O)C(=O)OCc2c1cc1n(c2=O)Cc2c-1nc1ccccc1c2CCNC1CCC1 [D7]	0.0074
CC[C@@]1(O)C(=O)OCc2c1cc1n(c2=O)Cc2c-1nc1ccccc1c2CCNCC(C)C [D5]	0.019
CCNCCc1c2c(nc3ccccc13)-c1cc3c(c(=O)n1C2)COC(=O)[C@]3(O)CC [D2]	0.030
CC[C@@]1(O)C(=O)OCc2c1cc1n(c2=O)Cc2c-1nc1ccccc1c2CCN(C)C(=O)CNC(=O)[C@H](Cc1ccccc1)NC(=O)CNC(=O)CNC(=O)CCOCCOCCOCCOCCOCCOCCNC(=O)CCN1C(=O)C=CC1=O [MI-6PEG-GGFG-D1] ({Propanoyl(3-maleimido)-PEG6}-GGFG-X7)	10.78

// for each molecule in input: emit IC50 A549 (non-small cell lung cancer)
1. CC[C@@]1(O)C(=O)OCc2c1cc1n(c2=O)Cc2c-1nc1ccccc1c2CCNC1CC1 [D6]
2. CC[C@@]1(O)C(=O)OCc2c1cc1n(c2=O)Cc2c-1nc1ccccc1c2CCNC [D1]
3. CC[C@@]1(O)C(=O)OCc2c1cc1n(c2=O)Cc2c-1nc1ccccc1c2CCN(C(=O)CNC(=O)[C@H](Cc1ccccc1)NC(=O)CNC(=O)CNC(=O)CCOCCOCCOCCOCCOCCOCCNC(=O)CCN1C(=O)C=CC1=O)C1CCCC1 [MI-6PEG-GGFG-D8] ({Propanoyl(3-maleimido)-PEG6}-GGFG-X8)

Result:
0.0025
0.027
4.93

---

test system: SJSA-1 (sarcoma tissue); assay: cells; type: cell-based; conditions: CCK8, 48 h; Table 1
Where a SMILES comes first, the peptide text is derived from it. The star is where a group is joined. Belotecan = CC[C@@]1(O)C(=O)OCc2c1cc1n(c2=O)Cc2c-1nc1ccccc1c2CCN(C(C)C)*; X4 = CCCN(CCc1c2c(nc3ccccc13)-c1cc3c(c(=O)n1C2)COC(=O)[C@]3(O)CC)*; Propanoyl(3-maleimido) = O=C1C=CC(=O)N1CCC(=O)*; PEG6 = NCCOCCOCCOCCOCCOCCOCCC(=O)O
Kindly supply the reported IC50 SJSA-1 (sarcoma tissue) values for the records listed here.
Answers are plain numbers, in µg/mL.

compound	result-units	IC50 SJSA-1 (sarcoma tissue)
CCCN(CCc1c2c(nc3ccccc13)-c1cc3c(c(=O)n1C2)COC(=O)[C@]3(O)CC)C(=O)CNC(=O)[C@H](CC(N)=O)NC(=O)[C@H](C)NC(=O)[C@H](C)NC(=O)CCOCCOCCOCCOCCOCCOCCNC(=O)CCN1C(=O)C=CC1=O [MI-6PEG-AANG-D3] ({Propanoyl(3-maleimido)-PEG6}-AANG-X4)	µg/mL	1.63

Now take the following compound into account.
Problem: Fill in: IC50 SJSA-1 (sarcoma tissue) of CC[C@@]1(O)C(=O)OCc2c1cc1n(c2=O)Cc2c-1nc1ccccc1c2CCN(C(=O)CNC(=O)[C@H](Cc1ccccc1)NC(=O)CNC(=O)CNC(=O)CCOCCOCCOCCOCCOCCOCCNC(=O)CCN1C(=O)C=CC1=O)C(C)C [MI-6PEG-GGFG-Belotecan] ({Propanoyl(3-maleimido)-PEG6}-GGFG-Belotecan) is ___
Result: 1.50

---

Kindly supply the reported IC50 A549 (non-small cell lung cancer) values for the records listed here.
System: A549 (non-small cell lung cancer)
Test: cells
Type: cell-based
Settings: CCK8, 48 h; Table 1
Protocol: Different types of cells were cultured with complete media (RPMI1640 (DMEM high sugar medium)+10% fetal bovine serum+1XP/S+sodium pyruvate 1 mM solution) in an incubator at 37° C. and 5% CO2 until the cells grew to a sufficient number, and the cells were collected, centrifuged at 1,000 g for 5 min, resuspended with an appropriate volume of a 10% RMPI1640 (DMEM high sugar medium) medium and counted. […] Cell survival rates and median inhibitory concentrations of the drugs on the cells were calculated. […]
Where a SMILES comes first, the peptide text is derived from it. The star is where a group is joined. X6 = CCCCCN(CCc1c2c(nc3ccccc13)-c1cc3c(c(=O)n1C2)COC(=O)[C@]3(O)CC)*; X3 = CC[C@@]1(O)C(=O)OCc2c1cc1n(c2=O)Cc2c-1nc1ccccc1c2CCN(C1CC1)*; Propanoyl(3-maleimido) = O=C1C=CC(=O)N1CCC(=O)*; PEG6 = NCCOCCOCCOCCOCCOCCOCCC(=O)O
Give bare numbers, in µg/mL.

Before answering, review these 2 worked examples.
molecule	result-units	IC50 A549 (non-small cell lung cancer)
CC[C@@]1(O)C(=O)OCc2c1cc1n(c2=O)Cc2c-1nc1ccccc1c2CCN(C(=O)CNC(=O)[C@H](CC(N)=O)NC(=O)[C@H](C)NC(=O)[C@H](C)NC(=O)CCOCCOCCOCCOCCOCCOCCNC(=O)CCN1C(=O)C=CC1=O)C1CC1 [MI-6PEG-AANG-D6] ({Propanoyl(3-maleimido)-PEG6}-AANG-X3)	µg/mL	1.55
CCCCNCCc1c2c(nc3ccccc13)-c1cc3c(c(=O)n1C2)COC(=O)[C@]3(O)CC	µg/mL	0.043

Problem: Fill in: IC50 A549 (non-small cell lung cancer) of CCCCCN(CCc1c2c(nc3ccccc13)-c1cc3c(c(=O)n1C2)COC(=O)[C@]3(O)CC)C(=O)CNC(=O)[C@H](CC(N)=O)NC(=O)[C@H](C)NC(=O)[C@H](C)NC(=O)CCOCCOCCOCCOCCOCCOCCNC(=O)CCN1C(=O)C=CC1=O [MI-6PEG-AANG-D4] ({Propanoyl(3-maleimido)-PEG6}-AANG-X6) is ___
Result: 6.37
